experimental-protocol: Clearance in rat at 5 mg/kg, iv or 15 mg/kg, po
Assay type: ADME, organism-based
recorded-conditions: in vivo
observable: clearance (mL/min/kg)
Give the value, in units of mL/min/kg, as a plain number.

If you can, please state the reported clearance value of `C=C[C@@H]1C[C@]1(NC(=O)[C@@H]1C[C@@H](Oc2ncc(OC)c3ccc(Cl)cc23)CN1C(=O)[C@@H](NC(=O)OC(C)(C)C)C(C)(C)C)C(=O)NS(=O)(=O)C1CC1` .
38

====

experimental-protocol: Oral bioavailability in rat at 15 mg/kg
Assay type: ADME, organism-based
recorded-conditions: in vivo
observable: bioavailability
Number plus unit, in that order.

If you can, please state the reported bioavailability value of `C=C[C@@H]1C[C@]1(NC(=O)[C@@H]1C[C@@H](Oc2ncc(OC)c3ccc(Cl)cc23)CN1C(=O)[C@@H](NC(=O)OC(C)(C)C)C(C)(C)C)C(=O)NS(=O)(=O)C1CC1` .
12%

====

experimental-protocol: Half life in Sprague-Dawley rat at 15 mg/kg, po after 24 hrs
Format: ADME, organism-based
recorded-conditions: in vivo
observable: half-life (h)
Give the value, in units of h, as a plain number.

If you can, please state the reported half-life value of `CO[C@@]12C[C@@H](C(=O)N[C@]3(C(=O)NS(=O)(=O)C4CC4)C[C@H]3C3CC3)N(C1)C(=O)[C@H](C(C)(C)C)NC(=O)OCCCCCOc1ccc3ccc2cc3c1` .
4.2

If you can, please state the reported half-life value of `COc1cc2ccc3cc2cc1CCCCCCOC(=O)N[C@@H](C(C)(C)C)C(=O)N1C[C@@]3(OC)C[C@H]1C(=O)N[C@]1(C(=O)NS(=O)(=O)C2CC2)C[C@H]1C1CC1` .
5.3

If you can, please state the reported half-life value of `COc1cc2ccc3cc2cc1OCCCN(C1CC1)CCOC(=O)N[C@@H](C(C)(C)C)C(=O)N1C[C@@]3(OC)C[C@H]1C(=O)N[C@]1(C(=O)NS(=O)(=O)C2CC2)C[C@H]1C1CC1` .
8

If you can, please state the reported half-life value of `COc1cc2ccc3cc2cc1CCCC(C)(C)CCOC(=O)N[C@@H](C(C)(C)C)C(=O)N1C[C@@]3(OC)C[C@H]1C(=O)N[C@]1(C(=O)NS(=O)(=O)C2CC2)C[C@H]1C1CC1` .
3.9

====

Provide the recorded AUC at 24 h for the entries that follow.
experimental-protocol: AUC in Sprague-Dawley rat at 5 mg/kg, iv after 24 hrs
Assay type: ADME, organism-based
Design: dose 5 mg/kg, time < 24 hr, route intravenous
recorded-conditions: in vivo
Number plus unit, in that order.

If you can, please state the reported AUC at 24 h value of `CO[C@@]12C[C@@H](C(=O)N[C@]3(C(=O)NS(=O)(=O)C4CC4)C[C@H]3C3CC3)N(C1)C(=O)[C@H](C(C)(C)C)NC(=O)OCCCCCOc1ccc3ccc2cc3c1` .
7.2 µM·h

If you can, please state the reported AUC at 24 h value of `COc1cc2ccc3cc2cc1CCCCCCOC(=O)N[C@@H](C(C)(C)C)C(=O)N1C[C@@]3(OC)C[C@H]1C(=O)N[C@]1(C(=O)NS(=O)(=O)C2CC2)C[C@H]1C1CC1` .
57 µM·h

If you can, please state the reported AUC at 24 h value of `COc1cc2ccc3cc2cc1OCCCN(C1CC1)CCOC(=O)N[C@@H](C(C)(C)C)C(=O)N1C[C@@]3(OC)C[C@H]1C(=O)N[C@]1(C(=O)NS(=O)(=O)C2CC2)C[C@H]1C1CC1` .
33 µM·h

If you can, please state the reported AUC at 24 h value of `COc1cc2ccc3cc2cc1CCCC(C)(C)CCOC(=O)N[C@@H](C(C)(C)C)C(=O)N1C[C@@]3(OC)C[C@H]1C(=O)N[C@]1(C(=O)NS(=O)(=O)C2CC2)C[C@H]1C1CC1` .
29 µM·h

====

Provide the recorded half-life for the entries that follow.
experimental-protocol: Half life in human liver microsomes in presence of NADPH
Assay type: ADME, microsome
Give the value, in units of min, as a plain number.

If you can, please state the reported half-life value of `C=Cc1cc2cc([C@]3(OC)C[C@@H](C(=O)N[C@]4(C(=O)NS(=O)(=O)C5CC5)C[C@H]4C=C)N(C(=O)[C@@H](NC(=O)OC(C)(C)C)C(C)(C)C)C3)ccc2cc1OC` .
36

If you can, please state the reported half-life value of `C=C[C@@H]1C[C@]1(NC(=O)[C@@H]1C[C@@](OC)(c2ccc3cc(OC)ccc3c2)CN1C(=O)[C@@H](NC(=O)OC(C)(C)C)C(C)(C)C)C(=O)NS(=O)(=O)C1CC1` .
21

If you can, please state the reported half-life value of `COc1cc2ccc3cc2cc1OCCCN(C1CC1)CCOC(=O)N[C@@H](C(C)(C)C)C(=O)N1C[C@@]3(OC)C[C@H]1C(=O)N[C@]1(C(=O)NS(=O)(=O)C2CC2)C[C@H]1C1CC1` .
43

If you can, please state the reported half-life value of `COc1cc2ccc3cc2cc1CCCCCCOC(=O)N[C@@H](C(C)(C)C)C(=O)N1C[C@@]3(OC)C[C@H]1C(=O)N[C@]1(C(=O)NS(=O)(=O)C2CC2)C[C@H]1C1CC1` .
99

If you can, please state the reported half-life value of `COc1cc2ccc3cc2cc1CCCCC(C)(C)COC(=O)N[C@@H](C(C)(C)C)C(=O)N1C[C@@]3(OC)C[C@H]1C(=O)N[C@]1(C(=O)NS(=O)(=O)C2CC2)C[C@H]1C1CC1` .
83

====

experimental-protocol: Drug concentration in Sprague-Dawley rat liver at 5 mg/kg, iv after 6 hrs
Format: ADME, organism-based
recorded-conditions: read-out: Drug uptake
observable: concentration at 6 h (µM)
Give the value, in units of µM, as a plain number.

If you can, please state the reported concentration at 6 h value of `C=C[C@@H]1C[C@]1(NC(=O)[C@@H]1C[C@]2(OC)CN1C(=O)[C@H](C(C)(C)C)NC(=O)OCCCCCCc1cc3cc2ccc3cc1OC)C(=O)NS(=O)(=O)C1CC1` .
95

====

experimental-protocol: Clearance in Sprague-Dawley rat at 5 mg/kg, iv after 6 hrs
Type: ADME, organism-based
recorded-conditions: in vivo
observable: clearance

If you can, please state the reported clearance value of `C=C[C@@H]1C[C@]1(NC(=O)[C@@H]1C[C@]2(OC)CN1C(=O)[C@H](C(C)(C)C)NC(=O)OCCCCCCc1cc3cc2ccc3cc1OC)C(=O)NS(=O)(=O)C1CC1` .
1.2 mL/min/kg

====

experimental-protocol: Half life in Sprague-Dawley rat at 5 mg/kg, iv after 24 hrs
Assay type: ADME, organism-based
recorded-conditions: in vivo
observable: half-life (h)
Give the value, in units of h, as a plain number.

If you can, please state the reported half-life value of `COc1cc2ccc3cc2cc1OCCCN(C1CC1)CCOC(=O)N[C@@H](C(C)(C)C)C(=O)N1C[C@@]3(OC)C[C@H]1C(=O)N[C@]1(C(=O)NS(=O)(=O)C2CC2)C[C@H]1C1CC1` .
20

If you can, please state the reported half-life value of `COc1cc2ccc3cc2cc1CCCC(C)(C)CCOC(=O)N[C@@H](C(C)(C)C)C(=O)N1C[C@@]3(OC)C[C@H]1C(=O)N[C@]1(C(=O)NS(=O)(=O)C2CC2)C[C@H]1C1CC1` .
9.6

If you can, please state the reported half-life value of `CO[C@@]12C[C@@H](C(=O)N[C@]3(C(=O)NS(=O)(=O)C4CC4)C[C@H]3C3CC3)N(C1)C(=O)[C@H](C(C)(C)C)NC(=O)OCCCCCOc1ccc3ccc2cc3c1` .
4.6

If you can, please state the reported half-life value of `COc1cc2ccc3cc2cc1CCCCCCOC(=O)N[C@@H](C(C)(C)C)C(=O)N1C[C@@]3(OC)C[C@H]1C(=O)N[C@]1(C(=O)NS(=O)(=O)C2CC2)C[C@H]1C1CC1` .
9.5

====

Provide the recorded AUC at 24 h for the entries that follow.
experimental-protocol: AUC in Sprague-Dawley rat at 15 mg/kg, po after 24 hrs
Format: ADME, organism-based
Parameters: time < 24 hr, dose 15 mg/kg, route oral
recorded-conditions: in vivo
Give the value, in units of µM·h, as a plain number.

If you can, please state the reported AUC at 24 h value of `COc1cc2ccc3cc2cc1OCCCN(C1CC1)CCOC(=O)N[C@@H](C(C)(C)C)C(=O)N1C[C@@]3(OC)C[C@H]1C(=O)N[C@]1(C(=O)NS(=O)(=O)C2CC2)C[C@H]1C1CC1` .
18

If you can, please state the reported AUC at 24 h value of `COc1cc2ccc3cc2cc1CCCC(C)(C)CCOC(=O)N[C@@H](C(C)(C)C)C(=O)N1C[C@@]3(OC)C[C@H]1C(=O)N[C@]1(C(=O)NS(=O)(=O)C2CC2)C[C@H]1C1CC1` .
87

If you can, please state the reported AUC at 24 h value of `CO[C@@]12C[C@@H](C(=O)N[C@]3(C(=O)NS(=O)(=O)C4CC4)C[C@H]3C3CC3)N(C1)C(=O)[C@H](C(C)(C)C)NC(=O)OCCCCCOc1ccc3ccc2cc3c1` .
3.6

If you can, please state the reported AUC at 24 h value of `COc1cc2ccc3cc2cc1CCCCCCOC(=O)N[C@@H](C(C)(C)C)C(=O)N1C[C@@]3(OC)C[C@H]1C(=O)N[C@]1(C(=O)NS(=O)(=O)C2CC2)C[C@H]1C1CC1` .
59

Data provenance: ChEMBL document CHEMBL4177703
